- target: Androgen receptor (Homo sapiens)
- Sequence (P10275 whole entry): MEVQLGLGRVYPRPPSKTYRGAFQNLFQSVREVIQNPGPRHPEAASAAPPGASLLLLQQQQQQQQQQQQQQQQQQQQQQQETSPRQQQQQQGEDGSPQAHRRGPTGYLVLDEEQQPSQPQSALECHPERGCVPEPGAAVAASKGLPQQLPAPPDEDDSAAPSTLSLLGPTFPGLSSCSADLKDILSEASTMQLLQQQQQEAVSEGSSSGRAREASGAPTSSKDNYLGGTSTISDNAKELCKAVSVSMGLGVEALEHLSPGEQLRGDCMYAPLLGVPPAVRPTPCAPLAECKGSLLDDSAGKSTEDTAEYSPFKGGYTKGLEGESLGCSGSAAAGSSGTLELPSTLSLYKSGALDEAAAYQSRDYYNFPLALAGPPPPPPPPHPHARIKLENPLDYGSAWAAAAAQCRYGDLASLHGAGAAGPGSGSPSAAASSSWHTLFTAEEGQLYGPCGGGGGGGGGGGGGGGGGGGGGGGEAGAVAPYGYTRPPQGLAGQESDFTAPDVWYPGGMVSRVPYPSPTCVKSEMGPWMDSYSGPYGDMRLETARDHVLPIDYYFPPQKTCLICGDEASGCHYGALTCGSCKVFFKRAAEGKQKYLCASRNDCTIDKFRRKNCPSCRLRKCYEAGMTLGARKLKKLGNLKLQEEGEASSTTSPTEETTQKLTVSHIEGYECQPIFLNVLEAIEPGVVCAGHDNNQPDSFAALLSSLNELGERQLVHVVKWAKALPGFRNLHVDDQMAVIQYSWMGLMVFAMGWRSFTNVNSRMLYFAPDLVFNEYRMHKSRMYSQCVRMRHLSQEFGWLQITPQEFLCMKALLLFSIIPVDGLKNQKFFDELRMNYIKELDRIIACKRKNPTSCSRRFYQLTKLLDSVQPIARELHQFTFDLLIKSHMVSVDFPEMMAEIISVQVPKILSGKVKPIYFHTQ
- experimental_details: Inhibition of wild type androgen receptor expressed in CV1 cells assessed as dihydrotestosterone-stimulated transactivation by CAT reporter gene assay
- Format: cell-based, CV-1
- measurement_setup: read-out: IC50
measured_metric: pIC50
Answers are plain numbers, as −log10 of the molar value.

IN: Give the reported pIC50 for O=C(CN1c2ccccc2Sc2ccc(C(F)(F)F)cc21)c1cccc2ccccc12 (system: Androgen receptor (Homo sapiens)).
OUT: 6.60
